- System: Panc10.05
- assay-procedure: 3D tumor spheroid culture growth (fluorescence intensity)
- measurement-conditions: read-out: LC50; 3D Cultures, Tumor Alone, Panc10.05, D12 curves
Readings of CC50 for the listed compounds
Report field: quantity (unit follows the number).

# compound, target-under-test, CC50
measured = [
    ("CCCCCCCCC/C(=C\\C1=C(C)C(=O)C(OC)=C(OC)C1=O)C(=O)O [APX3330]", "Panc10.05", "44.5 µM"),
    ("CCC/C(=C\\C1=C(OC)C(=O)c2ccccc2C1=O)C(=O)N(CC)CC [APX2009]", "Panc10.05", "9.4 µM"),
]

// below: CC50 requested for another compound
Request: Look at this compound and give its reported CC50. NS(=O)(=O)c1ccc(NC(=O)Nc2ccc(F)cc2)cc1 [SLC-0111, reference compound]
Result: 64 µM
